pIC50: −log10 of the molar value.
Below are pIC50 values recorded for Acetylcholinesterase (Homo sapiens).

# per-item lookup of pIC50; items listed below
1. CC[C@H]1[C@H]2OC(=O)[C@@](C)(O)[C@H]2[C@]23CC[C@@H]([C@@H]4C[C@H](C)C(=O)O4)N2CCCC[C@H]13
2. CC[C@H]1[C@H](C[C@H](C)C(=O)OC)O[C@]23CC[C@@H]([C@@H]4C[C@H](C)C(=O)O4)N2CCCC[C@]13O

stdout:
["< 4.00", "< 4.00"]

stdin: Indicate its recorded pIC50; the molecule in question is CC[C@@H]1[C@H]2OC(=O)[C@](C)(O)[C@H]2[C@]23CC[C@@H]([C@@H]4C[C@@H](C)C(=O)O4)N2CCCC[C@@H]13
stdout: < 4.00

Taken from ChEMBL document CHEMBL3232805.
